- TARGET DESC: ZFP SBS#1298 (synthetic)
- Sequence (chain, as listed by the source): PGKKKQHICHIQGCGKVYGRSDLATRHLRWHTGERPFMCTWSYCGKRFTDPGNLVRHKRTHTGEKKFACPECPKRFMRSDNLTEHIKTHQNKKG
- TEST DETAILS: EMSA
- APPLIED CONDITIONS: tags: MBP fusion
OBSERVABLE: pKd
pKd (log units): -log10 of the concentration in mol/L.

Task: Specify pKd for CAGGACGTG (dsDNA) DNA 1: CAGGACGTG DNA 2: CACGTCCTG and stop.
Result: 10.30

Data credit: patent US20030068675
